Assign area under the viability dose-response curve to each entry below.
- Test system: 17F1 (fetal-I hepatoblastoma organoid with intermediate liver markers)
- MEASUREMENT_DESCRIPTION: area under the viability dose-response curve (AUC) (AUC (arbitrary units, max 500 = no viability loss)); higher = less sensitive (higher viability)
- CONDITIONS: exposure time: 120 h; concentration range: 0.1 nM - 10 µM, 6 doses
Numbers only.

Here's what some known entries look like.
>  <COMPOUND>
CS(=O)(=O)c1ccc(C(=O)Nc2ccc(Cl)c(-c3ccccn3)c2)c(Cl)c1

>  <MEASURED_ON>
17F1

>  <ENDPOINT_RESULT>
489

$$$$
>  <COMPOUND>
Cc1cc(Nc2ncc(Cl)c(Nc3ccccc3S(=O)(=O)C(C)C)n2)c(OC(C)C)cc1C1CCNCC1

>  <MEASURED_ON>
17F1

>  <ENDPOINT_RESULT>
446

$$$$
>  <COMPOUND>
Cc1sc2c(c1C)C(c1ccc(Cl)cc1)=N[C@@H](CC(=O)Nc1ccc(O)cc1)c1nnc(C)n1-2

>  <MEASURED_ON>
17F1

>  <ENDPOINT_RESULT>
461

$$$$

I'm hoping you can list area under the viability dose-response curve for every compound here, please.
1. CNC(=O)c1cc(Oc2ccc(NC(=O)Nc3ccc(Cl)c(C(F)(F)F)c3)cc2)ccn1
2. CC[C@H](Nc1ncnc2[nH]cnc12)c1nc2cccc(F)c2c(=O)n1-c1ccccc1
3. Nc1nc(=S)c2[nH]cnc2[nH]1
4. Cn1nnc2c(C(N)=O)ncn2c1=O [Temozolomide]
5. CCNC(=O)C[C@@H]1N=C(c2ccc(Cl)cc2)c2cc(OC)ccc2-n2c(C)nnc21
6. COc1ncc(-c2nc3c(n2C(C)C)[C@H](c2ccc(Cl)cc2)N(c2cc(Cl)cn(C)c2=O)C3=O)c(OC)n1

1. 448
2. 495
3. 457
4. 494
5. 477
6. 395

I'm hoping you can list area under the viability dose-response curve for every compound here, please.
1. CC(C)(C)c1cc(NC(=O)Nc2ccc(-c3cn4c(n3)sc3cc(OCCN5CCOCC5)ccc34)cc2)no1
2. COc1cc(CCc2cc(NC(=O)c3ccc(N4CC(C)NC(C)C4)cc3)n[nH]2)cc(OC)c1 (stereo unspecified)
3. COCCNCc1ccc(-c2cc3nccc(Oc4ccc(NC(=O)C5(C(=O)Nc6ccc(F)cc6)CC5)cc4F)c3s2)nc1
4. CC1(C)CCC(c2ccc(Cl)cc2)=C(CN2CCN(c3ccc(C(=O)NS(=O)(=O)c4ccc(N[C@H](CCN5CCOCC5)CSc5ccccc5)c(S(=O)(=O)C(F)(F)F)c4)cc3)CC2)C1
5. COc1cc(Nc2c(C#N)cnc3cc(OCCCN4CCN(C)CC4)c(OC)cc23)c(Cl)cc1Cl

1: 471; 2: 480; 3: 457; 4: 433; 5: 469

###

- Test system: 135F2 (fetal-II hepatoblastoma organoid with high liver markers)
- MEASUREMENT_DESCRIPTION: area under the viability dose-response curve (AUC) (AUC (arbitrary units, max 500 = no viability loss)); higher = less sensitive (higher viability)
- CONDITIONS: exposure time: 120 h; concentration range: 0.1 nM - 10 µM, 6 doses
QUANTITY: area under the viability dose-response curve

I'm hoping you can list area under the viability dose-response curve for every molecule here, please.
1. CS(=O)(=O)N1CCN(Cc2cc3nc(-c4cccc5[nH]ncc45)nc(N4CCOCC4)c3s2)CC1
2. COc1cc(Nc2ncc3c(n2)-c2ccc(Cl)cc2C(c2c(F)cccc2OC)=NC3)ccc1C(=O)O
3. Cc1c2c(nn1C)CSCc1cc(n(C)n1)CSc1cc(c3ccccc3c1)OCCCc1c(C(=O)O)n(C)c3c-2c(Cl)ccc13

411
369
379

###

- Test system: 13F2 (fetal-II hepatoblastoma organoid with high liver markers)
- MEASUREMENT_DESCRIPTION: area under the viability dose-response curve (AUC) (AUC (arbitrary units, max 500 = no viability loss)); higher = less sensitive (higher viability)
- CONDITIONS: exposure time: 120 h; concentration range: 0.1 nM - 10 µM, 6 doses
Assign area under the viability dose-response curve to each entry below.
Give bare numbers.

Here's what some known entries look like.
>  <COMPOUND>
COc1ccc(-c2nc(N3CCOCC3)c3sc(CN(C)c4ncc(C(=O)NO)cn4)cc3n2)cn1 [Fimepinostat]

>  <MEASURED_ON>
13F2

>  <ENDPOINT_RESULT>
167

$$$$
>  <COMPOUND>
Cc1ccc(NC(=O)c2ccc(CN3CCN(C)CC3)cc2)cc1Nc1nc(-c2cccnc2)cs1 [Masitinib]

>  <MEASURED_ON>
13F2

>  <ENDPOINT_RESULT>
489

$$$$
>  <COMPOUND>
C#Cc1cccc(Nc2ncnc3cc(OCCOC)c(OCCOC)cc23)c1 [Erlotinib]

>  <MEASURED_ON>
13F2

>  <ENDPOINT_RESULT>
360

$$$$

Let us move to another entry and its area under the viability dose-response curve.
Sample Cc1sc2c(c1C)C(c1ccc(Cl)cc1)=N[C@@H](CC(=O)Nc1ccc(O)cc1)c1nnc(C)n1-2 [Birabresib] , system: 13F2. Its area under the viability dose-response curve is 318

###

- Test system: 135F2
- MEASUREMENT_DESCRIPTION: area under the viability dose-response curve (AUC) (AUC (arbitrary units, max 500 = no viability loss)); higher = less sensitive (higher viability)
- CONDITIONS: exposure time: 120 h; concentration range: 0.1 nM - 10 µM, 6 doses
QUANTITY: area under the viability dose-response curve

I'm hoping you can list area under the viability dose-response curve for every compound here, please.
1. CCn1cc(-c2ccnc3[nH]c(-c4cccc(CN(C)C)c4)cc23)c(-c2ccc(NC(=O)N(C)C)cc2)n1
2. CCNC(=O)C[C@@H]1N=C(c2ccc(Cl)cc2)c2cc(OC)ccc2-n2c(C)nnc21
3. COc1cc(C(=O)O)ccc1NC(=O)[C@@H]1N[C@@H](CC(C)(C)C)[C@](C#N)(c2ccc(Cl)cc2F)[C@H]1c1cccc(Cl)c1F
4. COc1cc(CCc2cc(NC(=O)c3ccc(N4CC(C)NC(C)C4)cc3)n[nH]2)cc(OC)c1 (stereo not drawn)
5. CN1CCN(c2ccc3nc(-c4c(N)c5c(F)cccc5[nH]c4=O)[nH]c3c2)CC1

[370, 417, 397, 471, 455]

I'm hoping you can list area under the viability dose-response curve for every compound here, please.
1. C#Cc1cccc(Nc2ncnc3cc4c(cc23)OCCOCCOCCO4)c1
2. Oc1nc(-c2ccc(C(F)(F)F)cc2)nc2c1CSCC2

1. 474
2. 486

The reported value for `O=C(NC[C@H](O)CO)c1ccncc1Nc1ccc(I)cc1F` in terms of area under the viability dose-response curve is 393

###

- Test system: 135F2
- MEASUREMENT_DESCRIPTION: area under the viability dose-response curve (AUC) (AUC (arbitrary units, max 500 = no viability loss)); higher = less sensitive (higher viability)
- CONDITIONS: exposure time: 120 h; concentration range: 0.1 nM - 10 µM, 6 doses
QUANTITY: area under the viability dose-response curve
Numbers only.

Here's what some known entries look like.
>  <COMPOUND>
Nc1cc(F)ccc1NC(=O)c1ccc(CNC(=O)/C=C/c2cccnc2)cc1 [Epidaza]

>  <ENDPOINT_RESULT>
444

$$$$
>  <COMPOUND>
CC(C)N(C[C@H]1O[C@@H](n2cnc3c(N)ncnc32)[C@H](O)[C@@H]1O)[C@H]1C[C@@H](CCc2nc3cc(C(C)(C)C)ccc3[nH]2)C1

>  <ENDPOINT_RESULT>
489

$$$$
>  <COMPOUND>
CN(C)/N=N/c1[nH]cnc1C(N)=O

>  <ENDPOINT_RESULT>
496

$$$$

I'm hoping you can list area under the viability dose-response curve for every compound here, please.
1. COc1cc(Nc2c(C#N)cnc3cc(OCCCN4CCN(C)CC4)c(OC)cc23)c(Cl)cc1Cl
2. CNC(=O)c1cc(Oc2ccc(NC(=O)Nc3ccc(Cl)c(C(F)(F)F)c3)cc2)ccn1

459
431

###

- System: 17F1
- MEASUREMENT_DESCRIPTION: area under the viability dose-response curve (AUC) (AUC (arbitrary units, max 500 = no viability loss)); higher = less sensitive (higher viability)
- CONDITIONS: exposure time: 120 h; concentration range: 0.1 nM - 10 µM, 6 doses
Assign area under the viability dose-response curve to each entry below.
One number for each entry.

>  <MOLECULE>
COc1cccc2c1C(=O)c1c(O)c3c(c(O)c1C2=O)C[C@@](O)(C(=O)CO)C[C@@H]3O[C@H]1C[C@H](N)[C@H](O)[C@H](C)O1 [Doxorubicin]

>  <ENDPOINT_RESULT>
311

$$$$
>  <MOLECULE>
CC(C)N(C[C@H]1O[C@@H](n2cnc3c(N)ncnc32)[C@H](O)[C@@H]1O)[C@H]1C[C@@H](CCc2nc3cc(C(C)(C)C)ccc3[nH]2)C1 [Pinometostat]

>  <ENDPOINT_RESULT>
472

$$$$
>  <MOLECULE>
C[C@@H](Oc1cc(-c2cnn(C3CCNCC3)c2)cnc1N)c1c(Cl)ccc(F)c1Cl [Crizotinib]

>  <ENDPOINT_RESULT>
431

$$$$

I'm hoping you can list area under the viability dose-response curve for every molecule here, please.
1. C[C@]1(O)C[C@@H](c2nc(-c3ccc4ccc(-c5ccccc5)nc4c3)c3c(N)nccn32)C1 [Linsitinib]
2. Cc1c(C(=O)Nc2ccc(N3C[C@@H](C)O[C@@H](C)C3)nc2)cccc1-c1ccc(OC(F)(F)F)cc1 [Sonidegib]
3. CC(=O)Nc1cccc(-n2c(=O)n(C3CC3)c(=O)c3c(Nc4ccc(I)cc4F)n(C)c(=O)c(C)c32)c1 [Trametinib]
4. O=c1cc(CN2CCOCC2)occ1OCCCCCSc1ccnc2cc(C(F)(F)F)ccc12 [EHT 1864]
5. CC[C@]1(O)C[C@@H]2CN(CCc3c([nH]c4ccccc34)[C@@](C(=O)OC)(c3cc4c(cc3OC)N(C)[C@H]3[C@@](O)(C(N)=O)[C@H](O)[C@]5(CC)C=CCN6CC[C@]43[C@@H]65)C2)C1 [Vindesine]

492
477
428
477
239

I'm hoping you can list area under the viability dose-response curve for every molecule here, please.
1. CC1(N)CCN(c2cnc(-c3cccc(Cl)c3Cl)c(N)n2)CC1 [SHP099]
2. NS(=O)(=O)OC[C@@H]1C[C@@H](n2ccc3c(N[C@H]4CCc5ccccc54)ncnc32)C[C@@H]1O [Pevonedistat]
3. N#CCNC(=O)c1ccc(-c2ccnc(Nc3ccc(N4CCOCC4)cc3)n2)cc1 [Momelotinib]
4. CCc1c2c(nc3ccc(O)cc13)-c1cc3c(c(=O)n1C2)COC(=O)[C@]3(O)CC [SN-38 (Irinotecan)]
5. CC1(COc2ccc3c(c2)ncn3-c2ccc3cccc(N4CCC(N)CC4)c3n2)COC1 [Crenolanib]
6. C=CC(=O)N1CCC[C@@H](n2nc(-c3ccc(Oc4ccccc4)cc3)c3c(N)ncnc32)C1 [Ibrutinib]

[483, 400, 489, 189, 479, 488]
